test system: MCF-7; test: MTT cell proliferation assay, MCF-7; type: cell-based, human; details: Table 4
assay readout: IC50 values MCF-7

Form: compound = CC(=O)OC1CC[C@@]2(C)C(CC[C@]3(C)C2C(=O)C=C2C4[C@@H](C)[C@H](C)CC[C@]4(C)CC[C@]23C)[C@@]1(C)C(=O)NCCN (stereo partly shown) ; IC50 values MCF-7 = 12.98 µg/mL

* * *

// values below are reported inhibition at 10 µg/mL
tested on: MCF-7; assay: MTT cell proliferation assay, MCF-7; type: cell-based, human; conditions: Homo sapiens, MCF7; Table 4; 10 μg/ml; read-out: Percentage Inhibition of cell proliferation MCF-7
Write it as a number; the unit % goes unstated.

Please review the entries below; each comes with its answer.
INSERT INTO measurements (molecule, assay_readout, numeric_value) VALUES
  ('CC(=O)O[C@@H]1CC[C@@]2(C)C(CC[C@]3(C)C2C(=O)C=C2C4[C@@H](C)[C@H](C)CC[C@]4(C)CC[C@]23C)[C@@]1(C)C(=O)Nc1ccc(O)cc1 (some centres unmarked) [Analog 46]', 'inhibition at 10 µg/mL', 39),
  ('CC(=O)O[C@@H]1CC[C@]2(C)C3=C(Cl)C=C4C5[C@@H](C)[C@H](C)CC[C@]5(C)CC[C@@]4(C)[C@]3(C)CCC2[C@@]1(C)C(=O)NCCN (some centres unmarked) [Analog 61]', 'inhibition at 10 µg/mL', 41),
  ('C[C@@H]1CC[C@]2(C)CC[C@]3(C)C(=CC(=O)C4[C@@]5(C)CC[C@@H](O)[C@](C)(C(=O)N6CCN(CCO)CC6)C5CC[C@]43C)C2[C@H]1C (some centres unmarked) [Analog 38]', 'inhibition at 10 µg/mL', 2.73),
  ('CC(=O)O[C@@H]1CC[C@@]2(C)C(CC[C@]3(C)C2C(=O)C=C2C4[C@@H](C)[C@H](C)CC[C@]4(C)CC[C@]23C)[C@@]1(C)C(=O)NC1Cc2ccccc2C1 (some centres unmarked) [Analog 41]', 'inhibition at 10 µg/mL', 3.74),
  ('COC(=O)CNC(=O)[C@]1(C)C2CC[C@]3(C)C(C(=O)C=C4C5[C@@H](C)[C@H](C)CC[C@]5(C)CC[C@]43C)[C@@]2(C)CC[C@H]1OC(C)=O (some centres unmarked) [Analog 32]', 'inhibition at 10 µg/mL', 14);

The molecule identified as CC(=O)O[C@@H]1CC[C@@]2(C)C(CC[C@]3(C)C2C(=O)C=C2C4[C@@H](C)[C@H](C)CC[C@]4(C)CC[C@]23C)[C@@]1(C)C(=O)NC(C)C (some centres unmarked) [Analog 30] registered its inhibition at 10 µg/mL at 46

Kindly note the recorded inhibition at 10 µg/mL for CC(=O)O[C@@H]1CC[C@@]2(C)C(CC[C@]3(C)C2C(=O)C=C2C4[C@@H](C)[C@H](C)CC[C@]4(C)CC[C@]23C)[C@@]1(C)C(=O)NNc1ccccc1 (some centres unmarked) [Analog 47] , which is 10

Reported inhibition at 10 µg/mL ( COC(=O)[C@]1(C)C2CC[C@]3(C)C(C(=O)C=C4C5[C@@H](C)[C@H](C)CC[C@]5(C)CC[C@]43C)[C@@]2(C)CC[C@H]1S (some centres unmarked) [Analog 15] ) = 21.6

Reference for the values: patent US8748598B2
